# PROTOCOL CONDITIONS: 298.15 K; 101.33 kPa; Liquid
Reported mass density is given for each of the following compounds.

COMPOUND: CCCC[P+](CC)(CCCC)CCCC.CCOP(=O)([O-])OCC [tributylethylphosphonium diethylphosphate]
mass density, kg/m3: 1007.43
--
COMPOUND: CCOP(=O)([O-])OCC.CCn1cc[n+](C)c1 [1-ethyl-3-methylimidazolium diethyl phosphate]
mass density, kg/m3: 1145.47
--
COMPOUND: C[n+]1ccn(CCO)c1.O=C([O-])C(F)(F)F
mass density, kg/m3: 1366.36
--
COMPOUND: CCn1cc[n+](C)c1.CS(=O)(=O)[O-] [1-ethyl-3-methylimidazolium methanesulfonate]
mass density, kg/m3: 1243.83
--
COMPOUND: CCn1cc[n+](C)c1.COS(=O)(=O)[O-] [1-ethyl-3-methylimidazolium methylsulfate]
mass density, kg/m3: 1287.75
--
COMPOUND: CCn1cc[n+](C)c1.N#C[S-] [1-ethyl-3-methylimidazolium thiocyanate]
mass density, kg/m3: 1115.96
--
COMPOUND: CCn1cc[n+](C)c1.O=S(=O)([O-])O [1-ethyl-3-methylimidazolium hydrogen sulfate]
mass density, kg/m3: 1365.79

* * *

# PROTOCOL CONDITIONS: 323.15 K; 101.33 kPa; Liquid
ASSAY ENDPOINT: mass density (kg/m3)

COMPOUND: CCn1cc[n+](C)c1.CS(=O)(=O)[O-] [1-ethyl-3-methylimidazolium methanesulfonate]
RESULT VALUE: 1227.03
//
COMPOUND: CCn1cc[n+](C)c1.O=S(=O)([O-])O [1-ethyl-3-methylimidazolium hydrogen sulfate]
RESULT VALUE: 1350.14
//
COMPOUND: CCn1cc[n+](C)c1.N#C[S-] [1-ethyl-3-methylimidazolium thiocyanate]
RESULT VALUE: 1100.85
//
COMPOUND: CCn1cc[n+](C)c1.COS(=O)(=O)[O-] [1-ethyl-3-methylimidazolium methylsulfate]
RESULT VALUE: 1270.87
//
COMPOUND: CCOP(=O)([O-])OCC.CCn1cc[n+](C)c1 [1-ethyl-3-methylimidazolium diethyl phosphate]
RESULT VALUE: 1128.57
//
COMPOUND: CCCC[P+](CC)(CCCC)CCCC.CCOP(=O)([O-])OCC [tributylethylphosphonium diethylphosphate]
RESULT VALUE: 990.87
//
COMPOUND: C[n+]1ccn(CCO)c1.O=C([O-])C(F)(F)F
RESULT VALUE: 1346.98

* * *

# ASSAY DETAILS: molar heat capacity at constant pressure
# PROTOCOL CONDITIONS: 323.15 K; 101.33 kPa; Liquid; Small sample (50 mg) DSC
ASSAY ENDPOINT: molar heat capacity at constant pressure (J/K/mol)

COMPOUND: CCn1cc[n+](C)c1.N#C[S-] [1-ethyl-3-methylimidazolium thiocyanate]
ASSAY ENDPOINT: molar heat capacity at constant pressure
UNIT ABBREV: J/K/mol
RESULT VALUE: 293
//
COMPOUND: CCCC[P+](CC)(CCCC)CCCC.CCOP(=O)([O-])OCC [tributylethylphosphonium diethylphosphate]
ASSAY ENDPOINT: molar heat capacity at constant pressure
UNIT ABBREV: J/K/mol
RESULT VALUE: 739
//
COMPOUND: CCn1cc[n+](C)c1.CS(=O)(=O)[O-] [1-ethyl-3-methylimidazolium methanesulfonate]
ASSAY ENDPOINT: molar heat capacity at constant pressure
UNIT ABBREV: J/K/mol
RESULT VALUE: 339
//
COMPOUND: CCCCCCn1cc[n+](C)c1.O=S(=O)([O-])C(F)(F)F [1-hexyl-3-methylimidazolium trifluoromethanesulfonate]
ASSAY ENDPOINT: molar heat capacity at constant pressure
UNIT ABBREV: J/K/mol
RESULT VALUE: 513
//
COMPOUND: CCOP(=O)([O-])OCC.CCn1cc[n+](C)c1 [1-ethyl-3-methylimidazolium diethyl phosphate]
ASSAY ENDPOINT: molar heat capacity at constant pressure
UNIT ABBREV: J/K/mol
RESULT VALUE: 545
//
COMPOUND: C[n+]1ccn(CCO)c1.O=C([O-])C(F)(F)F
ASSAY ENDPOINT: molar heat capacity at constant pressure
UNIT ABBREV: J/K/mol
RESULT VALUE: 381
//
COMPOUND: CCn1cc[n+](C)c1.COS(=O)(=O)[O-] [1-ethyl-3-methylimidazolium methylsulfate]
ASSAY ENDPOINT: molar heat capacity at constant pressure
UNIT ABBREV: J/K/mol
RESULT VALUE: 343
//
COMPOUND: CCn1cc[n+](C)c1.O=S(=O)([O-])O [1-ethyl-3-methylimidazolium hydrogen sulfate]
ASSAY ENDPOINT: molar heat capacity at constant pressure
UNIT ABBREV: J/K/mol
RESULT VALUE: 306

* * *

# ASSAY DETAILS: molar heat capacity at constant pressure
# PROTOCOL CONDITIONS: 313.15 K; 101.33 kPa; Liquid; Small sample (50 mg) DSC

COMPOUND: CCn1cc[n+](C)c1.CS(=O)(=O)[O-] [1-ethyl-3-methylimidazolium methanesulfonate]
molar heat capacity at constant pressure (J/K/mol): 334
--
COMPOUND: CCn1cc[n+](C)c1.N#C[S-] [1-ethyl-3-methylimidazolium thiocyanate]
molar heat capacity at constant pressure (J/K/mol): 290
--
COMPOUND: CCCCCCn1cc[n+](C)c1.O=S(=O)([O-])C(F)(F)F [1-hexyl-3-methylimidazolium trifluoromethanesulfonate]
molar heat capacity at constant pressure (J/K/mol): 506
--
COMPOUND: CCn1cc[n+](C)c1.O=S(=O)([O-])O [1-ethyl-3-methylimidazolium hydrogen sulfate]
molar heat capacity at constant pressure (J/K/mol): 302

* * *

# PROTOCOL CONDITIONS: 343.15 K; 101.33 kPa; Liquid
± gives the expanded uncertainty stated by the source.
Reported mass density is given for each of the following molecules.
ASSAY ENDPOINT: mass density

MOLECULE: CCn1cc[n+](C)c1.COS(=O)(=O)[O-] [1-ethyl-3-methylimidazolium methylsulfate]
ASSAY ENDPOINT: mass density
RESULT VALUE: 1257.72 ± 1.4 kg/m3

MOLECULE: CCn1cc[n+](C)c1.CS(=O)(=O)[O-] [1-ethyl-3-methylimidazolium methanesulfonate]
ASSAY ENDPOINT: mass density
RESULT VALUE: 1213.79 ± 1.2 kg/m3

MOLECULE: CCCC[P+](CC)(CCCC)CCCC.CCOP(=O)([O-])OCC [tributylethylphosphonium diethylphosphate]
ASSAY ENDPOINT: mass density
RESULT VALUE: 977.79 ± 0.51 kg/m3

MOLECULE: CCn1cc[n+](C)c1.O=S(=O)([O-])O [1-ethyl-3-methylimidazolium hydrogen sulfate]
ASSAY ENDPOINT: mass density
RESULT VALUE: 1338.46 ± 2.8 kg/m3

MOLECULE: CCn1cc[n+](C)c1.N#C[S-] [1-ethyl-3-methylimidazolium thiocyanate]
ASSAY ENDPOINT: mass density
RESULT VALUE: 1089.06 ± 0.77 kg/m3

MOLECULE: CCOP(=O)([O-])OCC.CCn1cc[n+](C)c1 [1-ethyl-3-methylimidazolium diethyl phosphate]
ASSAY ENDPOINT: mass density
RESULT VALUE: 1115.36 ± 0.86 kg/m3

MOLECULE: C[n+]1ccn(CCO)c1.O=C([O-])C(F)(F)F
ASSAY ENDPOINT: mass density
RESULT VALUE: 1331.98 ± 1.7 kg/m3

* * *

# ASSAY DETAILS: molar heat capacity at constant pressure
# PROTOCOL CONDITIONS: 343.15 K; 101.33 kPa; Liquid; Small sample (50 mg) DSC
Numbers after ± are expanded uncertainties.
Reported molar heat capacity at constant pressure is given for each of the following molecules.

MOLECULE: CCn1cc[n+](C)c1.CS(=O)(=O)[O-] [1-ethyl-3-methylimidazolium methanesulfonate]
molar heat capacity at constant pressure: 350 ± 28 J/K/mol

MOLECULE: CCn1cc[n+](C)c1.O=S(=O)([O-])O [1-ethyl-3-methylimidazolium hydrogen sulfate]
molar heat capacity at constant pressure: 324 ± 26 J/K/mol

MOLECULE: C[n+]1ccn(CCO)c1.O=C([O-])C(F)(F)F
molar heat capacity at constant pressure: 394 ± 32 J/K/mol

MOLECULE: CCCC[P+](CC)(CCCC)CCCC.CCOP(=O)([O-])OCC [tributylethylphosphonium diethylphosphate]
molar heat capacity at constant pressure: 768 ± 62 J/K/mol
